- target-or-system: Kallikrein-7 (Homo sapiens)
- Sequence (P49862 whole entry, the tested form may be a part): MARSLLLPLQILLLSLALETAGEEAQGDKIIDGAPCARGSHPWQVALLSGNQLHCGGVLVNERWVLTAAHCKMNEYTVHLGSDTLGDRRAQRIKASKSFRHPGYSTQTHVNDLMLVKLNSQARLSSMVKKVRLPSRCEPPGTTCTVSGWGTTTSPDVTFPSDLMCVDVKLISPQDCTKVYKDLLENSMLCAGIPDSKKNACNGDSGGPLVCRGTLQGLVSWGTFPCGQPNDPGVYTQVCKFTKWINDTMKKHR
- method-notes: Inhibition of C-terminal poly-His-tagged human recombinant KLK7 (30 to 253 residues) transfected in CHO cells assessed as inhibition constant using KHLY-pNA as fluorogenic substrate incubated for 30 mins by fluorescence plate reader assay
- Type: cell-based
Numbered stars: 1 amine (or outer) side, 2 acyl side, 3 side chain; on linkers, the order of the positions; unused ones are H or OH. Bridge positions count the residues as written; N and C are the ends. Peptide text beside a SMILES is read from it. * marks the point of attachment. Pyridine(2,6-diCH2) = c1cc(C[*:1])nc(C[*:2])c1; Pyrrolidin1yl(2S-Ac) = CC(=O)[C@@H]1CCCN1*
measured-property: Ki (nM)
Answers are plain numbers, in nM.

compound: CC(=O)[C@@H]1CCCN1C(=O)[C@@H]1CSCc2cccc(n2)CSC[C@H](NC(=O)[C@@H]2CCCN2)C(=O)N[C@@H](CC(C)C)C(=O)N[C@@H](Cc2ccc(O)cc2)C(=O)N[C@@H](CC(C)C)C(=O)N[C@@H](CO)C(=O)N1 (H-PCLYLSC-{Pyrrolidin1yl(2S-Ac)}; linker 2-7 via Pyridine(2,6-diCH2))
target-or-system: Kallikrein-7 (Homo sapiens)
recorded-number: 50

Attention now shifts to the item below.
Task: What value of measured Ki is listed for CC(C)C[C@@H]1NC(=O)[C@@H](NC(=O)[C@@H]2CCCN2)CSCc2cccc(n2)CSC[C@@H](C(=O)N[C@@H](CO)C(=O)O)NC(=O)[C@H](CO)NC(=O)[C@H](CC(C)C)NC(=O)[C@H](Cc2ccccc2)NC1=O (H-PCLFLSCS-OH; linker 2-7 via Pyridine(2,6-diCH2)) ?
Result: 220
